# Measured On: human recombinant HDAC6 (Homo sapiens, UniProt Q9UBN7)
# Construct: purchased Calbiochem 382180
# Run Description: HDAC6 enzyme activity inhibition assay (HDAC Fluorimetric Drug Discovery Kit)
# Format: biochemical
# Experimental Conditions: human recombinant HDAC6, same protocol as HDAC1; read-out: HDAC6
Labelling: IC50 reported below 80 nM becomes T; at or above becomes F.

Some entries whose results are on file:
[
  {
    "Smiles Input": "CCN1CCN(C(=O)N(Cc2ccc(-c3nnc(C(F)F)o3)cc2F)c2ccc(OC)cc2)CC1",
    "Class Name": "T"
  },
  {
    "Smiles Input": "O=C(NCCN1CCCCC1)N(Cc1ccc(-c2nnc(C(F)F)o2)cc1F)c1ccccc1",
    "Class Name": "F"
  },
  {
    "Smiles Input": "O=C(N1CCS(=O)(=O)CC1)N(Cc1ccc(-c2nnc(C(F)(F)F)o2)cc1)c1ccc(-c2ccc3c(c2)OCO3)cc1",
    "Class Name": "F"
  },
  {
    "Smiles Input": "CCN1CCN(C(=O)N(Cc2ccc(-c3nnc(C(F)F)o3)cn2)c2ccc(F)cc2)CC1",
    "Class Name": "T"
  },
  {
    "Smiles Input": "CCN1CCN(C(=O)N(Cc2ccc(-c3nnc(C(F)(F)F)o3)cc2)c2ccc(F)cc2)CC1",
    "Class Name": "F"
  }
]

Report whether reported IC50 is lower than 80 nM (strictly) for "O=C(N1CCOCC1)N(Cc1ccc(-c2nnc(C(F)F)o2)cc1F)c1ccccc1" T

---

Reported IC50 values are given for each entry in this list.
# Measured On: human recombinant HDAC6 (Homo sapiens, UniProt Q9UBN7)
# Construct: purchased Calbiochem 382180
# Run Description: HDAC6 enzyme activity inhibition assay (HDAC Fluorimetric Drug Discovery Kit)
# Type: biochemical
# Experimental Conditions: human recombinant HDAC6, same protocol as HDAC1; read-out: HDAC6
I only need the number, in nM, no unit after it.

Solved entries:
[
  {
    "Smiles Input": "CC(=O)N1[C@H](C)CN(C(=O)N(Cc2ccc(-c3nnc(C(F)(F)F)o3)cc2)c2ccccc2)C[C@@H]1C",
    "Measure Unit": "nM",
    "IC50": 241
  },
  {
    "Smiles Input": "CCN1CCN(C(=O)N(Cc2ccc(-c3nnc(C(F)(F)F)o3)cc2F)c2cccc(Cl)c2)CC1",
    "Measure Unit": "nM",
    "IC50": 343
  },
  {
    "Smiles Input": "CCCN(Cc1ccc(-c2nnc(C(F)(F)F)o2)cc1)C(=O)N1CCOCC1",
    "Measure Unit": "nM",
    "IC50": 582
  },
  {
    "Smiles Input": "COc1ccc(N(Cc2ccc(-c3nnc(C(F)F)o3)cn2)C(=O)N2CCS(=O)(=O)CC2)cc1",
    "Measure Unit": "nM",
    "IC50": 34
  },
  {
    "Smiles Input": "O=C(N1CCOCC1)N(Cc1ccc(-c2nnc(C(F)(F)F)o2)cc1F)C12CC3CC(CC(C3)C1)C2",
    "Measure Unit": "nM",
    "IC50": 1740
  }
]

Please look up its IC50: "CCN1CCN(C(=O)N(Cc2ccc(-c3nnc(C(F)(F)F)o3)cn2)c2ccc(F)cc2)CC1" 113

Moving on to the next compound: "CC(C)N1CCN(C(=O)N(Cc2ccc(-c3nnc(C(F)(F)F)o3)cc2)c2ccccc2)CC1" 183

Same question for "O=C(N1CCOCC1)N(Cc1ccc(-c2nnc(C(F)(F)F)o2)cc1)Cc1cccnc1" please. 4530

Now the same for "O=C(N1CC2(CCNCC2)C1)N(Cc1ccc(-c2nnc(C(F)F)o2)cc1F)c1ccccc1" 34

Consider next the compound "O=C(N1CCS(=O)(=O)CC1)N(Cc1ccc(-c2nnc(C(F)F)o2)cc1)c1ccccc1C(F)(F)F" in the same way. 530

Try this compound too: "O=C(N1CCN(Cc2ccccc2)CC1)N(Cc1ccc(-c2nnc(C(F)(F)F)o2)cc1)c1ccccc1" 830

Please give the result for "COc1ccc(N(Cc2ccc(-c3nnc(C(F)F)o3)cn2)C(=O)N2CCN(C)CC2)cc1" too. 35

Now this one: "Cn1ncc2ccc(-c3ccc(N(Cc4ccc(-c5nnc(C(F)(F)F)o5)cc4)C(=O)N4CCS(=O)(=O)CC4)cc3)cc21" 344

What do you have for "CN1CCN(c2cccc(N(Cc3ccc(-c4nnc(C(F)F)o4)cc3)C(=O)N3CCS(=O)(=O)CC3)c2)CC1" ? 637

What do we get for "Cn1ncc2ccc(N(Cc3ccc(-c4nnc(C(F)F)o4)cc3F)C(=O)N3CCS(=O)(=O)CC3)cc21" ? 21

---

Listed here are compounds together with their documented HDAC6 selectivity (fold).
# Measured On: human recombinant HDAC6 (Homo sapiens, UniProt Q9UBN7)
# Construct: purchased Calbiochem 382180
# Sequence (Q9UBN7 1-1215): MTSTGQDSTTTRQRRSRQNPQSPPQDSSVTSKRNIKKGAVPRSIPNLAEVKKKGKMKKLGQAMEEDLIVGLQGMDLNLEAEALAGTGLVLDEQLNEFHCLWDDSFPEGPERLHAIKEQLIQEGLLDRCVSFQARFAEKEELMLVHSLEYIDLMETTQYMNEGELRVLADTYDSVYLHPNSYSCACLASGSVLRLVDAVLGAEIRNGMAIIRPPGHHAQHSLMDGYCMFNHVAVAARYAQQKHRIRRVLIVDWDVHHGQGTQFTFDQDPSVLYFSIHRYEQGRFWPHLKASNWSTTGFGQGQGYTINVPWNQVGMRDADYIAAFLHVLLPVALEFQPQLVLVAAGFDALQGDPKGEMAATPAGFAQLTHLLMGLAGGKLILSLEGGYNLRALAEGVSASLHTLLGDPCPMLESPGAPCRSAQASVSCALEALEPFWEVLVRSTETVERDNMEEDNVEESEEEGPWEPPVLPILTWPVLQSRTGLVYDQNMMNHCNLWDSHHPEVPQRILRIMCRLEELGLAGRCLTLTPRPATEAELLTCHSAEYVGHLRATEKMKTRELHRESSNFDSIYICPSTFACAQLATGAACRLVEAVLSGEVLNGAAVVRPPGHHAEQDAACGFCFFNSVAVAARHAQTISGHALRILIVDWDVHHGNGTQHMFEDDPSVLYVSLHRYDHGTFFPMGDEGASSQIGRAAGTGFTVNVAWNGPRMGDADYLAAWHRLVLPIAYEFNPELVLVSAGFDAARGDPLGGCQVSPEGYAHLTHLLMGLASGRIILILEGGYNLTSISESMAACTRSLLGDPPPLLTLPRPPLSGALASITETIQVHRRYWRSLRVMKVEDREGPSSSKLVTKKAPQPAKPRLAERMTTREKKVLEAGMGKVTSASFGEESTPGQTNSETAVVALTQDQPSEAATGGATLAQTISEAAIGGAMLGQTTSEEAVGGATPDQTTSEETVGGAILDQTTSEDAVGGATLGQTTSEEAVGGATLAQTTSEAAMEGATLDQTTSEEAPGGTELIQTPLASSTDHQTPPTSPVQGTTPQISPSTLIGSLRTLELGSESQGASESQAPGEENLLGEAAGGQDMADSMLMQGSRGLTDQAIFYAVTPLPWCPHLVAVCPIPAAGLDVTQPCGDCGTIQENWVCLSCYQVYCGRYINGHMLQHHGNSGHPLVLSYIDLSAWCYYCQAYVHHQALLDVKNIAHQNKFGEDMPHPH
# Run Description: HDAC6 enzyme activity inhibition assay (HDAC Fluorimetric Drug Discovery Kit)
# Assay type: biochemical
# Experimental Conditions: HDAC6 over HDAC1
Numbers only here, please. The scale is fold.

Past entries and their recorded results:
[
  {
    "Compound": "CCN1CCN(C(=O)N(Cc2ccc(-c3nnc(C(F)(F)F)o3)cc2F)c2ccc(F)cc2)CC1 [Compound 21869]",
    "HDAC6 selectivity (fold)": 137
  },
  {
    "Compound": "CC(C)(C)c1ccc(N(Cc2ccc(-c3nnc(C(F)(F)F)o3)cc2F)C(=O)N2CCS(=O)(=O)CC2)cc1 [Compound 21460]",
    "HDAC6 selectivity (fold)": 1
  },
  {
    "Compound": "O=C(N1CCS(=O)(=O)CC1)N(Cc1ccc(-c2nnc(C(F)F)o2)cc1F)c1ccsc1 [Compound 22021]",
    "HDAC6 selectivity (fold)": 101
  }
]

Name the recorded HDAC6 selectivity (fold) for O=C(N1CCOCC1)N(CCc1ccccc1)Cc1ccc(-c2nnc(C(F)F)o2)cc1F [Compound 21555] . 26

Param item: CCN1CCN(C(=O)N(Cc2ccc(-c3nnc(C(F)F)o3)cc2F)c2ccc(F)c(Br)c2)CC1 [Compound 21656] 1122

Can you check CN(CCO)C(=O)N(Cc1ccc(-c2nnc(C(F)F)o2)cc1)c1ccccc1 [Compound 21585] next? 370

Let us now turn to CCN1CCN(C(=O)N(Cc2ccc(-c3nnc(C(F)(F)F)o3)cn2)c2ccc(F)cc2)CC1 [Compound 21870] 400
